Assay: Half-life in male Beagle dog at 1 mg/kg, iv measured after 24 hrs by LC-MS/MS analysis
Format: ADME, organism-based, Canis lupus familiaris
Conditions: in vivo
Measured quantity: half-life (h)
Respond numerically; units are h and should not be typed.

Report measured half-life; entry is CCn1c(-c2cc(N3CCN(C)CC3)cnc2[C@H](C)OC)c2c3cc(ccc31)-c1csc(n1)C[C@H](NC(=O)[C@H]1C[C@@H]1C)C(=O)N1CCC[C@H](N1)C(=O)OCC(C)(C)C2
6.1

###

Assay: Oral bioavailability in male cynomolgus monkey at 10 mg/kg measured after 24 hrs by LC-MS/MS analysis
Type: ADME, organism-based, Macaca fascicularis
Settings: in vivo
Measured quantity: bioavailability (%)
Your answer should be a plain number; it is taken to be in %.

Give recorded bioavailability. CCn1c(-c2cc(N3CCN(C)CC3)cnc2[C@H](C)OC)c2c3cc(ccc31)-c1csc(n1)C[C@H](NC(=O)[C@H]1C[C@@H]1C)C(=O)N1CCC[C@H](N1)C(=O)OCC(C)(C)C2
24

###

Experiment: Tmax in male cynomolgus monkey at 10 mg/kg, po measured after 24 hrs by LC-MS/MS analysis
Assay type: ADME, organism-based, Macaca fascicularis
Conditions: in vivo
Measured quantity: Tmax (h)
Please reply with the bare figure in h and do not write the unit itself.

Please report the measured Tmax for CCn1c(-c2cc(N3CCN(C)CC3)cnc2[C@H](C)OC)c2c3cc(ccc31)-c1csc(n1)C[C@H](NC(=O)[C@H]1C[C@@H]1C)C(=O)N1CCC[C@H](N1)C(=O)OCC(C)(C)C2
3.7

###

Experiment: Ratio of drug concentration in mouse blood to plasma at 10 uM measured upto 120 mins by LC-MS/MS analysis
Format: ADME, cell-free
Measured quantity: blood plasma ratio at 2 h, 10 µM
Output: the number by itself.

Tell us which blood plasma ratio at 2 h, 10 µM value is on record for CCn1c(-c2cc(N3CCN(C)CC3)cnc2[C@H](C)OC)c2c3cc(ccc31)-c1csc(n1)C[C@H](NC(=O)[C@H]1C[C@@H]1C)C(=O)N1CCC[C@H](N1)C(=O)OCC(C)(C)C2
1.1

###

Experiment: Volume of distribution at steady state in male Beagle dog at 1 mg/kg, iv measured after 24 hrs by LC-MS/MS analysis
Format: ADME, organism-based, Canis lupus familiaris
Conditions: in vivo, read-out: Vdss
Measured quantity: Vd

Find the measured Vd of CCn1c(-c2cc(N3CCN(C)CC3)cnc2[C@H](C)OC)c2c3cc(ccc31)-c1csc(n1)C[C@H](NC(=O)[C@H]1C[C@@H]1C)C(=O)N1CCC[C@H](N1)C(=O)OCC(C)(C)C2 and report it.
2.1 L/kg

###

Experiment: Half-life in female BALB/c mouse at 1 mg/kg, iv measured after 24 hrs by LC-MS/MS analysis
Format: ADME, organism-based
Conditions: in vivo
Measured half-life values are reported for all entries that follow.
Your answer should be a number followed by the unit of measure.

Example entries and their recorded answers appear below.
CCn1c(-c2cccnc2[C@H](C)OC)c2c3cc(ccc31)-c1csc(n1)C[C@H](NC(=O)[C@H]1CCO1)C(=O)N1CCC[C@H](N1)C(=O)OCC(C)(C)C2 ... 1.6 h
CCn1c(-c2cccnc2[C@H](C)OC)c2c3cc(ccc31)-c1csc(n1)C[C@H](NC(=O)C1CC1)C(=O)N1CCC[C@H](N1)C(=O)OCC(C)(C)C2 ... 2 h

Retrieve half-life measured for CCn1c(-c2cccnc2[C@H](C)OC)c2c3cc(ccc31)-c1csc(n1)C[C@H](NC(=O)[C@H](C(C)C)N(C)C(=O)N1CCC1)C(=O)N1CCC[C@H](N1)C(=O)OCC(C)(C)C2 and print it.
0.8 h

Give the reported value of half-life for this record: CCn1c(-c2cc(N3CCN(C)CC3)cnc2[C@H](C)OC)c2c3cc(ccc31)-c1csc(n1)C[C@H](NC(=O)[C@H]1C[C@@H]1C)C(=O)N1CCC[C@H](N1)C(=O)OCC(C)(C)C2
2.2 h

Name the recorded half-life of the molecule listed here: CCn1c(-c2cccnc2[C@H](C)OC)c2c3cc(ccc31)-c1csc(n1)C[C@H](NC(=O)[C@H](C(C)C)N(C)C(=O)N(C)C)C(=O)N1CCC[C@H](N1)C(=O)OCC(C)(C)C2
0.7 h

Please give measured half-life of the following entry: CCn1c(-c2cccnc2[C@H](C)OC)c2c3cc(ccc31)-c1csc(n1)C[C@H](NC(=O)[C@H]1[C@@H]3COC[C@@H]31)C(=O)N1CCC[C@H](N1)C(=O)OCC(C)(C)C2
2.1 h

Given the molecule CCn1c(-c2cccnc2[C@H](C)OC)c2c3cc(ccc31)-c1csc(n1)C[C@H](NC(=O)[C@H](C(C)C)N(C)C(=O)N1CC(OC)C1)C(=O)N1CCC[C@H](N1)C(=O)OCC(C)(C)C2 , write its reported half-life.
1.5 h

Report measured half-life; entry is CCn1c(-c2cccnc2[C@H](C)OC)c2c3cc(ccc31)-c1csc(n1)C[C@H](NC(=O)[C@H]1C[C@@H]1C)C(=O)N1CCC[C@H](N1)C(=O)OCC(C)(C)C2
0.9 h

Report measured half-life; entry is CCn1c(-c2cccnc2[C@H](C)OC)c2c3cc(ccc31)-c1csc(n1)C[C@H](NC(=O)[C@H](C(C)C)N(C)C(C)=O)C(=O)N1CCC[C@H](N1)C(=O)OCC(C)(C)C2
0.6 h

###

Assay: Oral bioavailability in female BALB/c mouse at 10 mg/kg measured after 24 hrs by LC-MS/MS analysis
Type: ADME, organism-based
Conditions: in vivo
Measured quantity: bioavailability (%)
Field format: number, assumed %, no unit text.

Sample answers from the record:
CCn1c(-c2cccnc2[C@H](C)OC)c2c3cc(ccc31)-c1csc(n1)C[C@H](NC(=O)[C@H]1C[C@@H]1C)C(=O)N1CCC[C@H](N1)C(=O)OCC(C)(C)C2 ... 75
CCn1c(-c2cccnc2[C@H](C)OC)c2c3cc(ccc31)-c1csc(n1)C[C@H](NC(=O)[C@H]1[C@@H]3COC[C@@H]31)C(=O)N1CCC[C@H](N1)C(=O)OCC(C)(C)C2 ... 49

Let us move to another entry and its bioavailability.
Return bioavailability (reported value) for this molecule: CCn1c(-c2cccnc2[C@H](C)OC)c2c3cc(ccc31)-c1csc(n1)C[C@H](NC(=O)[C@H](C(C)C)N(C)C(=O)N(C)C)C(=O)N1CCC[C@H](N1)C(=O)OCC(C)(C)C2
0.8

###

Assay: Binding affinity to Cyclophilin A/Avi-tagged KRAS G12D mutant (1 to 169 residues) (unknown origin) assessed as dissociation constant by SPR analysis
Parameters: species or system Homo sapiens
Measured quantity: Kd (µM)
Give the value in µM but do not write µM after it.

Solved cases below.
CCn1c(-c2cccnc2[C@H](C)OC)c2c3cc(ccc31)-c1cccc(c1)C[C@H](NC(=O)[C@H](C(C)C)N(C)C(C)=O)C(=O)N1CCC[C@H](N1)C(=O)OCC(C)(C)C2 ... 10.7
CCn1c(-c2cccnc2[C@H](C)OC)c2c3cc(ccc31)-c1cccc(c1)C[C@H](NC(=O)[C@H](C(C)C)N(C)C(=O)[C@H]1CCN(C(C)=O)C1)C(=O)N1CCC[C@H](N1)C(=O)OCC(C)(C)C2 ... 3.55

// below: Kd requested for another compound
Look up Kd of CCn1c(-c2cccnc2[C@H](C)OC)c2c3cc(ccc31)-c1csc(n1)C[C@H](NC(=O)[C@H](C(C)C)N(C)C(C)=O)C(=O)N1CCC[C@H](N1)C(=O)OCC(C)(C)C2 and report it.
5.05

###

Test: Inhibition of ERK1/2 phosphorylation in human CAPAN-1 cells harboring KRAS G12V mutant incubated for 4 hrs by AlphaLISA assay
Format: cell-based
Conditions: CAPAN-1, 4 h
Friendly reminder: EC50 below 2 nM is 1.0, at or above is 0.0.

Some solved entries appear below for comparison.
CCn1c(-c2cc(N3CC4CC(C3)N4C)cnc2[C@H](C)OC)c2c3cc(ccc31)-c1csc(n1)C[C@H](NC(=O)[C@H]1C[C@@H]1C)C(=O)N1CCC[C@H](N1)C(=O)OCC(C)(C)C2 ... 1.0
CCn1c(-c2cccnc2[C@H](C)OC)c2c3cc(ccc31)-c1csc(n1)C[C@H](NC(=O)[C@H](C(C)C)N(C)C(C)=O)C(=O)N1CCC[C@H](N1)C(=O)OCC(C)(C)C2 ... 0.0
CCn1c(-c2cccnc2[C@H](C)OC)c2c3cc(ccc31)-c1csc(n1)C[C@H](NC(=O)[C@H](C(C)C)N(C)C(=O)N(C)C)C(=O)N1CCC[C@H](N1)C(=O)OCC(C)(C)C2 ... 0.0
CCn1c(-c2cc(N3CCN(CCOC)CC3)cnc2[C@H](C)OC)c2c3cc(ccc31)-c1csc(n1)C[C@H](NC(=O)[C@H]1C[C@@H]1C)C(=O)N1CCC[C@H](N1)C(=O)OCC(C)(C)C2 ... 1.0

Check if EC50 falls below 2 nM for CCn1c(-c2cc(N3CCN(C4CC4)CC3)cnc2[C@H](C)OC)c2c3cc(ccc31)-c1csc(n1)C[C@H](NC(=O)[C@H]1C[C@@H]1C)C(=O)N1CCC[C@H](N1)C(=O)OCC(C)(C)C2 .
1.0

State whether 2 nM exceeds EC50 recorded for CCn1c(-c2cc(N3CCN(C4COC4)CC3)cnc2[C@H](C)OC)c2c3cc(ccc31)-c1csc(n1)C[C@H](NC(=O)[C@H]1C[C@@H]1C)C(=O)N1CCC[C@H](N1)C(=O)OCC(C)(C)C2 .
1.0

In plain terms, does CCn1c(-c2cccnc2[C@H](C)OC)c2c3cc(ccc31)-c1csc(n1)C[C@H](NC(=O)[C@H]1C[C@@H]1C)C(=O)N1CCC[C@H](N1)C(=O)OCC(C)(C)C2 come in under 2 nM for EC50?
0.0
